Species: Rattus norvegicus
Test: Open TG-GATES - Regimen: Single
Type: toxicity, organism-based, Sprague-Dawley
Parameters: regimen Single, gender Male, age 6 weeks
Conditions: in vivo, po, 0 mg/kg, 6 h, tissue Kidney, route gavage, dose level Control
# KIDNEY_L annotations
QUANTITY_MEASURED: KIDNEY_L (g)

[[record]]
molecule = "CCSCC[C@H](N)C(=O)O [ETHIONINE]"
measured = 1

[[record]]
molecule = "CCC(C)(C)C(=O)O[C@H]1C[C@@H](C)C=C2C=C[C@H](C)[C@H](CC[C@@H]3C[C@@H](O)CC(=O)O3)[C@H]21 [SIMVASTATIN]"
measured = 0.9

[[record]]
molecule = "CCN1CCCC1CNC(=O)c1cc(S(N)(=O)=O)ccc1OC (stereo not given) [SULPIRIDE]"
measured = 0.9

[[record]]
molecule = "CC(=N)S [THIOACETAMIDE]"
measured = 0.9

[[record]]
molecule = "CC(C)C(=O)Nc1ccc([N+](=O)[O-])c(C(F)(F)F)c1 [FLUTAMIDE]"
measured = 0.9


* * *

# CRE annotations
Species: Rattus norvegicus
Assay: Open TG-GATES - Regimen: Single
Type: toxicity, organism-based, Sprague-Dawley
Parameters: regimen Single, gender Male, age 6 weeks
Conditions: in vivo, po, 0 mg/kg, 3 h, tissue Plasma, route gavage, dose level Control
QUANTITY_MEASURED: CRE

[[record]]
molecule = "CC(=O)Oc1cc(C(C)C)c(OCCN(C)C)cc1C [MOXISYLYTE]"
measured = "0.2 mg/dL"

[[record]]
molecule = "C[C@](N)(Cc1ccc(O)c(O)c1)C(=O)O [METHYLDOPA]"
measured = "0.2 mg/dL"

[[record]]
molecule = "CCN1CCCC1CNC(=O)c1cc(S(N)(=O)=O)ccc1OC (stereo not given) [SULPIRIDE]"
measured = "0.2 mg/dL"

[[record]]
molecule = "CCC(C)(C)C(=O)O[C@H]1C[C@@H](C)C=C2C=C[C@H](C)[C@H](CC[C@@H]3C[C@@H](O)CC(=O)O3)[C@H]21 [SIMVASTATIN]"
measured = "0.6 mg/dL"

[[record]]
molecule = "C#C[C@]1(O)CC[C@H]2[C@@H]3CCc4cc(O)ccc4[C@H]3CC[C@@]21C [ETHINYL ESTRADIOL]"
measured = "0.2 mg/dL"

[[record]]
molecule = "CN1C(=O)OC(C)(C)C1=O [TRIMETHADIONE]"
measured = "0.2 mg/dL"

[[record]]
molecule = "Nc1nc(N)c2nc(-c3ccccc3)c(N)nc2n1"
measured = "0.2 mg/dL"

[[record]]
molecule = "O=C(O)c1cccnc1 [NIACIN]"
measured = "0.1 mg/dL"

[[record]]
molecule = "CC(C)(S)[C@@H](N)C(=O)O [PENICILLAMINE]"
measured = "0.2 mg/dL"

[[record]]
molecule = "CC(C)C(=O)Nc1ccc([N+](=O)[O-])c(C(F)(F)F)c1 [FLUTAMIDE]"
measured = "0.3 mg/dL"


* * *

# Ca annotations
Species: Rattus norvegicus
Assay: Open TG-GATES - Regimen: Daily Repeat
Format: toxicity, organism-based, Sprague-Dawley
Set-up: regimen Daily Repeat, gender Male, age 6 weeks
Conditions: in vivo, po, 0 mg/kg, […], tissue Plasma, route gavage, dose level Control, time 28 day
QUANTITY_MEASURED: Ca (mg/dL)

[[record]]
compound = "CCN1CCCC1CNC(=O)c1cc(S(N)(=O)=O)ccc1OC (stereo not drawn) [SULPIRIDE]"
unit_abbreviation = "mg/dL"
measured = 10.5

[[record]]
compound = "O=C(N[C@H](CO)[C@H](O)c1ccc([N+](=O)[O-])cc1)C(Cl)Cl [CHLORAMPHENICOL]"
unit_abbreviation = "mg/dL"
measured = 11

[[record]]
compound = "CN1C(=O)OC(C)(C)C1=O [TRIMETHADIONE]"
unit_abbreviation = "mg/dL"
measured = 10.8

[[record]]
compound = "CC(C)C(=O)Nc1ccc([N+](=O)[O-])c(C(F)(F)F)c1 [FLUTAMIDE]"
unit_abbreviation = "mg/dL"
measured = 10.3

[[record]]
compound = "C[C@](N)(Cc1ccc(O)c(O)c1)C(=O)O [METHYLDOPA]"
unit_abbreviation = "mg/dL"
measured = 11.2

[[record]]
compound = "CCc1oc2ccccc2c1C(=O)c1cc(I)c(O)c(I)c1 [BENZIODARONE]"
unit_abbreviation = "mg/dL"
measured = 10.6

[[record]]
compound = "CC(=O)Oc1cc(C(C)C)c(OCCN(C)C)cc1C [MOXISYLYTE]"
unit_abbreviation = "mg/dL"
measured = 10.3

[[record]]
compound = "CCSCC[C@H](N)C(=O)O [ETHIONINE]"
unit_abbreviation = "mg/dL"
measured = 10.4

[[record]]
compound = "Nc1nc(N)c2nc(-c3ccccc3)c(N)nc2n1"
unit_abbreviation = "mg/dL"
measured = 10.8

[[record]]
compound = "C[C@]12CCC(=O)C=C1CC[C@@H]1[C@@H]2CC[C@@]2(C)[C@H]1CC[C@]2(C)O [METHYLTESTOSTERONE]"
unit_abbreviation = "mg/dL"
measured = 11.3

[[record]]
compound = "CC(=N)S [THIOACETAMIDE]"
unit_abbreviation = "mg/dL"
measured = 10.1

[[record]]
compound = "CC(C)(S)[C@@H](N)C(=O)O [PENICILLAMINE]"
unit_abbreviation = "mg/dL"
measured = 10.9

[[record]]
compound = "O=C(O)c1cccnc1 [NIACIN]"
unit_abbreviation = "mg/dL"
measured = 10.1


FYI, the data here is from ChEMBL document CHEMBL3885861.
